Target: UniProt Q9NPD5
Sequence (Q9NPD5 whole entry): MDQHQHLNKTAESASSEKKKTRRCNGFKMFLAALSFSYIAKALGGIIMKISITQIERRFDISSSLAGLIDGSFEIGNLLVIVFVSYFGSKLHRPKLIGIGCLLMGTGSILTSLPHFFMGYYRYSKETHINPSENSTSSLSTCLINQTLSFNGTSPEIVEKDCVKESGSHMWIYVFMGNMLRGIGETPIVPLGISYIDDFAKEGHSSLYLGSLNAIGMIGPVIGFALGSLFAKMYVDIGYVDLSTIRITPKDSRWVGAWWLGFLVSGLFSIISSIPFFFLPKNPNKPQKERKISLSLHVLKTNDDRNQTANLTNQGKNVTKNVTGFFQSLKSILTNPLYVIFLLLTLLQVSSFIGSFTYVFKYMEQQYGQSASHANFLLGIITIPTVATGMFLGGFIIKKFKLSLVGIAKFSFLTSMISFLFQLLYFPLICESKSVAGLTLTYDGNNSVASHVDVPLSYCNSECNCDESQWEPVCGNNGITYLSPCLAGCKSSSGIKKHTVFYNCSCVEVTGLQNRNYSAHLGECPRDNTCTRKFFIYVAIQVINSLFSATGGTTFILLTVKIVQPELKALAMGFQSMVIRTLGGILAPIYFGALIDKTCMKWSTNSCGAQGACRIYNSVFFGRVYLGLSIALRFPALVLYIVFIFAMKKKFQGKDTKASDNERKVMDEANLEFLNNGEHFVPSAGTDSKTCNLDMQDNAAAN
Settings: chinese hamster, cho, 10 µM
outcome.measure: residual activity
Write your answer as a measured quantity: the number, then the unit.

1) COc1ccc([C@H]2COc3c(ccc(O)c3OC)C2)c(OC)c1O [DUARTIN (-)]	86.99%

Exam item: Name the reported residual activity value associated with the molecule ClC1=C(Cl)C2(Cl)C3C(Cl)C=CC3C1(Cl)C2(Cl)Cl (stereo not drawn)
Marked response: 131.9%

Exam item: Name the reported residual activity value associated with the molecule C[N+]12CCC(CC1)C(OC(=O)C(O)(c1ccccc1)c1ccccc1)C2.[Br-] (stereo not drawn) [CLIDINIUM BROMIDE]
Marked response: 92.46%

Exam item: Name the reported residual activity value associated with the molecule O=c1cccc2n1C[C@@H]1C[C@H]2CN2CCCC[C@H]12.[O-][Cl+3]([O-])([O-])O
Marked response: 98.01%
